tested on: Cytosolic phospholipase A2 (Bos taurus); assay: Inhibition of cPLA2 measuring Calcium ionophore A-23,187-induced arachidonic acid release from bovine platelets with HPLC/UV detection. at 3.3 uM concentration.
measurementName: inhibition (%)

Known inhibition results, listed for orientation:
Query: Form field: inhibition recorded for CCCCCCCCCCCCCCCCCC(=O)c1c(C)c(CCC(=O)O)n(Cc2ccc(C(=O)O)cc2)c1C with Cytosolic phospholipase A2 (Bos taurus) (enter value)
Reply: 47

Query: Form field: inhibition recorded for CCCCCCCCCCCCCCCCCC(=O)c1c(C)c(CCC(=O)O)n(CCCCCC(=O)O)c1C with Cytosolic phospholipase A2 (Bos taurus) (enter value)
Reply: 52

I = CCCCCCCCCCCCCCCCCC(=O)c1c(C)c(CCC(=O)O)n(CCCCC)c1C
II = CCCCCCCCCCCCCCCCCC(=O)c1c(C)c(CCC(=O)O)n(Cc2ccc(C(=O)N(C)C)cc2)c1C
Query: Given the two records I and II , choose the one whose inhibition value is lower. Return value: the label identifying the chosen record.
Reply: I

I = CCCCCCCCCCCCCCCCCC(=O)c1c(C)c(CCC(=O)O)n(Cc2ccc(O)cc2)c1C
II = CCCCCCCCCCCCCCCCCC(=O)c1c(C)c(CCC(=O)O)n(Cc2ccccc2)c1C
Query: Just curious, which one has the larger inhibition reading, I or II ? Return value: the label identifying the chosen record.
Reply: I
(I: 30%, II: 20%)
